All figures here come from paper PMC8957246.

Give zone of inhibition at 2000 µM for every item shown.
System: Pseudomonas fluorescens EL-2.1
protocol_notes: Bactericidal activity, agar diffusion, Ps. fluorescens
Format: cell-based
conditions: Pseudomonas fluorescens, EL2.1; 2 mM/L; read-out: Inhibition zone width (mm), not less
Text: Plant pathogenic bacterial strains Micrococcus luteus B-109, Pectobacterium atrosepticum 1043, Pectobacterium carotovorum subsp. carotovorum MI, Pseudomonas fluorescens EL-2.1, and Xanthomonas campestris B-610 and fungal strain Fusarium oxysporum IBPPM 543 were obtained from the specialized scientific culture collection of IBPPM RAS (WFCC no. 975, WDCM no. 1021) (CM IBPPM). […]

In the examples that follow, each entry is paired with its recorded zone of inhibition at 2000 µM.
>>> value_reported("CC[N+](CC)(CC)CC(=O)N/N=C1\\C(=O)N(Cc2cc(C(C)(C)C)c(O)c(C(C)(C)C)c2)c2c1ccc(C)c2C [Compound 3d]")
"≥ 9 mm"
>>> value_reported("CC[N+](CC)(CC)CC(=O)N/N=C1\\C(=O)N(Cc2cc(C(C)(C)C)c(O)c(C(C)(C)C)c2)c2ccccc21 [Compound 3a]")
"≥ 9 mm"
>>> value_reported("CC[N+](CC)(CC)CC(=O)N/N=C1\\C(=O)N(Cc2cc(C(C)(C)C)c(O)c(C(C)(C)C)c2)c2ccc([N+](=O)[O-])cc21 [Compound 3f]")
"≥ 10 mm"

// batch mode: one zone of inhibition at 2000 µM value per listed entry
1. CC[N+](CC)(CC)CC(=O)N/N=C1\C(=O)N(Cc2cc(C(C)(C)C)c(O)c(C(C)(C)C)c2)c2c(Br)cc(Cl)cc21 [Compound 3g]
2. CC[N+](CC)(CC)CC(=O)N/N=C1\C(=O)N(Cc2cc(C(C)(C)C)c(O)c(C(C)(C)C)c2)c2cccc(Br)c21 [Compound 3e]
3. CCc1cccc2c1N(Cc1cc(C(C)(C)C)c(O)c(C(C)(C)C)c1)C(=O)/C2=N\NC(=O)C[N+](CC)(CC)CC [Compound 3c]

Result block:
≥ 8 mm
≥ 9 mm
≥ 8 mm

---

Tested on: Staphylococcus aureus ATCC 6538P FDA 209P
protocol_notes: Antimicrobial activity, serial dilution (MIC/MBC), Sa
Assay type: cell-based
conditions: Staphylococcus aureus, read-out: MBC (converted)
Give MBC for every item shown.
Answers are plain numbers, in µM.

In the examples that follow, each entry is paired with its recorded MBC.
>>> value_reported("CC[N+](CC)(CC)CC(=O)N/N=C1\\C(=O)N(Cc2cc(C(C)(C)C)c(O)c(C(C)(C)C)c2)c2cccc(Br)c21 [Compound 3e]")
17.7
>>> value_reported("CC[N+](CC)(CC)CC(=O)N/N=C1\\C(=O)N(Cc2cc(C(C)(C)C)c(O)c(C(C)(C)C)c2)c2ccccc21 [Compound 3a]")
13
>>> value_reported("CC[N+](CC)(CC)CC(=O)N/N=C1\\C(=O)N(Cc2cc(C(C)(C)C)c(O)c(C(C)(C)C)c2)c2c(Br)cc(Cl)cc21 [Compound 3g]")
21.9
>>> value_reported("CCn1cc(C(=O)O)c(=O)c2cc(F)c(N3CCNCC3)cc21 [Norfloxacin, reference compound]")
7.5
>>> value_reported("CC[N+](CC)(CC)CC(=O)N/N=C1\\C(=O)N(Cc2cc(C(C)(C)C)c(O)c(C(C)(C)C)c2)c2c1ccc(C)c2C [Compound 3d]")
12.4
>>> value_reported("CCc1cccc2c1N(Cc1cc(C(C)(C)C)c(O)c(C(C)(C)C)c1)C(=O)/C2=N\\NC(=O)C[N+](CC)(CC)CC [Compound 3c]")
6.2
>>> value_reported("CC[N+](CC)(CC)CC(=O)N/N=C1\\C(=O)N(Cc2cc(C(C)(C)C)c(O)c(C(C)(C)C)c2)c2ccc([N+](=O)[O-])cc21 [Compound 3f]")
96.7

From here, focus on the item given below.
Query block: Write down MBC measured for item CC[N+](CC)(CC)CC(=O)N/N=C1\C(=O)N(Cc2cc(C(C)(C)C)c(O)c(C(C)(C)C)c2)c2c(C)cccc21 [Compound 3b]
Result block: 25.4

---

Tested on: Pectobacterium carotovorum subsp. carotovorum MI
protocol_notes: Bactericidal activity, agar diffusion, P. carotovorum
Format: cell-based
conditions: Pectobacterium carotovorum; 2 mM/L; read-out: Inhibition zone width (mm), not less
measurement_label: zone of inhibition at 2000 µM

// batch mode: one zone of inhibition at 2000 µM value per listed entry
1. CC[N+](CC)(CC)CC(=O)N/N=C1\C(=O)N(Cc2cc(C(C)(C)C)c(O)c(C(C)(C)C)c2)c2ccccc21
2. CC[N+](CC)(CC)CC(=O)N/N=C1\C(=O)N(Cc2cc(C(C)(C)C)c(O)c(C(C)(C)C)c2)c2c1ccc(C)c2C
3. CCc1cccc2c1N(Cc1cc(C(C)(C)C)c(O)c(C(C)(C)C)c1)C(=O)/C2=N\NC(=O)C[N+](CC)(CC)CC
4. CC[N+](CC)(CC)CC(=O)N/N=C1\C(=O)N(Cc2cc(C(C)(C)C)c(O)c(C(C)(C)C)c2)c2c(Br)cc(Cl)cc21
5. CC[N+](CC)(CC)CC(=O)N/N=C1\C(=O)N(Cc2cc(C(C)(C)C)c(O)c(C(C)(C)C)c2)c2cccc(Br)c21

Result block:
1: ≥ 10 mm; 2: ≥ 8 mm; 3: ≥ 9 mm; 4: ≥ 9 mm; 5: ≥ 10 mm

---

Give melting point for every item shown.
Where a name gives a salt, the structure may show the parent alone.
Give bare numbers, in °C.

// batch mode: one melting point value per listed entry
1. CC[N+](CC)(CC)CC(=O)N/N=C1\C(=O)N(Cc2cc(C(C)(C)C)c(O)c(C(C)(C)C)c2)c2c(C)cccc21 (as salt: bromide)
2. CC[N+](CC)(CC)CC(=O)N/N=C1\C(=O)N(Cc2cc(C(C)(C)C)c(O)c(C(C)(C)C)c2)c2ccccc21 (as salt: bromide)
3. CC[N+](CC)(CC)CC(=O)N/N=C1\C(=O)N(Cc2cc(C(C)(C)C)c(O)c(C(C)(C)C)c2)c2c(Br)cc(Cl)cc21 (as salt: bromide)
4. CC[N+](CC)(CC)CC(=O)N/N=C1\C(=O)N(Cc2cc(C(C)(C)C)c(O)c(C(C)(C)C)c2)c2cccc(Br)c21 (as salt: bromide)
5. CC[N+](CC)(CC)CC(=O)N/N=C1\C(=O)N(Cc2cc(C(C)(C)C)c(O)c(C(C)(C)C)c2)c2ccc([N+](=O)[O-])cc21 (as salt: bromide)

Result block:
[154, 212, 177, 194, 176]

Query block: Write down melting point measured for item CCc1cccc2c1N(Cc1cc(C(C)(C)C)c(O)c(C(C)(C)C)c1)C(=O)/C2=N\NC(=O)C[N+](CC)(CC)CC (as salt: bromide)
Result block: 163
